# Tested on: Escherichia coli TOP10;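 note: peptides expressed intracellularly from a pBAD plasmid library in pooled LB shake-flask culture, induced with 0.3% L-arabinose, DNA abundance read by NGS, three biological replicates, DESeq2 with apeglm shrinkage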
# assayOverview: shrunken log2 fold change of peptide-encoding DNA abundance (4.5 h post-induction vs induction); higher = less antimicrobial activity (less host growth inhibition)
# experimentalParameters: time post-induction: 4.5 h; library: site-saturation at positions 5, 18, 19, 20
Can you tell me shrunken log2 fold change for the items I'm about to list?
Give bare numbers.

In [3]: df
Out[3]:
             residuestring  valueobserved
0  RRIRHRPPRLPRPRPRPKQKPRP       -0.00654
1  RRIRWRPPRLPRPRPRPLTQPRP          0.307
2  RRIRIRPPRLPRPRPRPRNEPRP          0.227
3  RRIRDRPPRLPRPRPRPIKCPRP        -0.0161
4  RRIRARPPRLPRPRPRPDLQPRP           0.79
5  RRIRIRPPRLPRPRPRPNFQPRP         -0.417
6  RRIRNRPPRLPRPRPRPRIFPRP         -0.442
7  RRIRSRPPRLPRPRPRPAWYPRP           -0.3
8  RRIRMRPPRLPRPRPRPPVWPRP          0.825
9  RRIRLRPPRLPRPRPRPQDAPRP         0.0335

Please look at the items below and tell me shrunken log2 fold change for each one, in order.
1. RRIRMRPPRLPRPRPRPRYVPRP
2. RRIRCRPPRLPRPRPRPPHGPRP
3. RRIRNRPPRLPRPRPRPALTPRP
4. RRIRARPPRLPRPRPRPCYKPRP
5. RRIRTRPPRLPRPRPRPLNQPRP

Output:
1: -0.18; 2: 0.499; 3: -0.158; 4: -0.0942; 5: -0.417
